# method-summary: qHTS assay to identify small molecule agonists of the estrogen related receptor (ERR) signaling pathway from Tox21 library (AID 1224849); note: % is set by controls: 0 for no effect and ±100 for the full control effect; nearly all actives have a fitted effect of over 15% in size
# condition-set: ERR reporter cell line, ONE-Glo luciferase, 18 h; at 92.4 µM (top of the series) unless noted
The source made the active and inactive calls. Calls come from the whole dose curve.
endpoint-name: activity change, positive = activation

Guide cases for activity change, positive = activation, answers given:
>>> reported("CC(COC(C)(C)C)OCCCO (stereo not drawn)")
"3.31% (inactive)"
>>> reported("BrCc1cccc(Oc2ccccc2)c1")
"0.526% (inactive)"
>>> reported("CCCCCCCCCCl")
"2.84% (inactive)"
>>> reported("CC(C)(C)c1n[nH]c(=S)n(N)c1=O")
"-1.28% (inactive)"
>>> reported("CC(=O)N[C@@H](CCC(=O)O)C(=O)O")
"5.46% [at 42.5 µM] (inactive)"

# input Note activity change, positive = activation for the compound shown: "CCCCCCCC/C=C\CCCCCCCC(=O)OCCCC"
# output 0.0665% [at 19 µM] (inactive)

# input Note activity change, positive = activation for the compound shown: "Nc1ccc2cc(S(=O)(=O)O)cc(O)c2c1"
# output 1.3% (inactive)

# input Note activity change, positive = activation for the compound shown: "CCCCCCCCCCCCCC"
# output 2.93% (inactive)

# input Note activity change, positive = activation for the compound shown: "COc1cc(C(=S)N2CCOCC2)cc(OC)c1OC"
# output -0.791% [at 42.5 µM] (inactive)

====

# method-summary: A CellTox Green Cytotoxicity Assay to monitor cytotoxicity in HEK293 cells - 0 hour (AID 1224869); note: % is set by controls: 0 for no effect and ±100 for the full control effect; nearly all actives have a fitted effect of over 50% in size
# condition-set: CellTox Green fluorescence; series mostly up to 76.8 µM
Active and inactive are the calls of the source. Calls come from the whole dose curve; as a rule, active = well fitted activation curve with a large enough effect in the repeat runs; inconclusive = weak or mixed curves; inactive = flat fitted curve, though single readings scatter.
endpoint-name: cytotoxicity

Guide cases for cytotoxicity, answers given:
>>> reported("c1ccc2nccnc2c1")
"inactive"
>>> reported("CC(COC(C)(C)C)OCCCO (configuration not stated)")
"inactive"
>>> reported("O=C(c1ccc(O)cc1)c1ccc(O)c(O)c1O")
"inactive"
>>> reported("C=C(C)C(=O)OCCN(CC)CC")
"inactive"
>>> reported("CC/C=C\\CC1=C(C)CCC1=O")
"inactive"
>>> reported("O=C1c2ccccc2C(=O)C1c1ccccc1")
"inactive"
>>> reported("COCCOCCOCCOCCO")
"inactive"
>>> reported("O=C(O)Cc1ccc(Cl)cc1Cl")
"inactive"
>>> reported("C[C@@H](Oc1ccc(CNC(=O)c2cccnc2Oc2ccc3c(c2)OCO3)c(F)c1)C(=O)O")
"inactive"
>>> reported("Nc1ccc2cc(S(=O)(=O)O)cc(O)c2c1")
"inactive"

# input Note cytotoxicity for the compound shown: "CCCCCOC(=O)CCC"
# output inactive

# input Note cytotoxicity for the compound shown: CC(C(=O)O)c1ccc2c(c1)CC(=O)c1ccccc1S2 (configuration not stated)
# output inactive

# input Note cytotoxicity for the compound shown: "CC1(C)S[C@@H]2[C@H](N=CN3CCCCCC3)C(=O)N2[C@H]1C(=O)O"
# output inactive

# input Note cytotoxicity for the compound shown: "CCCCCCCCC(=O)Cl"
# output inactive

# input Note cytotoxicity for the compound shown: "BrCCCCCBr"
# output inactive

# input Note cytotoxicity for the compound shown: "COc1cc2c(cc1OC)[C@@H]1CC(=O)[C@@H](CC(C)C)CN1CC2"
# output inactive

# input Note cytotoxicity for the compound shown: "NS(=O)(=O)c1ccc(NC(=O)CCC(=O)O)cc1"
# output inactive

# input Note cytotoxicity for the compound shown: "CCOC(=O)CC(=O)c1ccccc1"
# output inactive

# input Note cytotoxicity for the compound shown: "O=C(O)c1ccc(Cl)cc1Cl"
# output inactive

# input Note cytotoxicity for the compound shown: "Oc1cn2c(n1)Nc1ccc(Cl)c(Cl)c1C2"
# output 0.503% [at 15.8 µM] (inactive)

# input Note cytotoxicity for the compound shown: "C[C@@H](O)[C@H]1C(=O)N2C(C(=O)O)=C(SCCN=CN)C[C@H]12"
# output inactive

# input Note cytotoxicity for the compound shown: "O=C1c2ccccc2C(=O)c2cc(S(=O)(=O)O)ccc21"
# output inactive
